Recorded pIC50 values for a group of compounds are listed next.
Target: SARS‐CoV‐2 M^pro (Severe acute respiratory syndrome coronavirus 2, UniProt P0DTD1)
Assay: Determination of IC50 and K i values
Assay type: biochemical
Settings: product formation determined after 10 min
A value of pIC50 is the negative decimal logarithm of a concentration given in moles per litre.

Illustrative cases are given below, each with its answer.
CC(C)(C)[C@H](NC(=O)c1cccs1)C(=O)N[C@@H](Cc1ccccc1)C(=O)NN(Cc1cccc(Cl)c1)C(=O)CCl = 7.33
CC(C)(C)[C@H](NC(=O)c1cccs1)C(=O)N[C@@H](Cc1ccccc1)C(=O)NN(Cc1cccc(Cl)c1)C(=O)C(F)Cl (mixture of isomers) = 5.05
CN(NC(=O)[C@H](Cc1ccccc1)NC(=O)OCc1ccccc1)C(=O)C(Cl)Cl = 5.61

[in] Fill in reported pIC50 for this entry: CN(NC(=O)[C@H](Cc1ccccc1)NC(=O)OCc1ccccc1)C(=O)CCl
[out] 4.52

Data provenance is paper PMC12723578.
